Hello, the source for this data is ChEMBL document CHEMBL1138041, in case you need it.

Species on record: Homo sapiens
Conditions: in vivo
Each entry below carries its reported log Kp.
A bare number is not enough; add the unit after it.

The following molecules have reported results that may help.
| MOLECULE | ENDPOINT_NAME | OBSERVED |
| --- | --- | --- |
| c1ccc2cnccc2c1 | log Kp | -5.33 cm/s |
| Cc1cc(=O)n(-c2ccccc2)n1C [ANTIPYRINE] | log Kp | -7.74 cm/s |
| Nc1cc([N+](=O)[O-])ccc1O | log Kp | -6.62 cm/s |
| CC(C(=O)O)c1cccc(C(=O)c2ccccc2)c1 (stereo unspecified) | log Kp | -4.7 cm/s |
| O=C(OCc1ccccc1)c1cccnc1 [BENZYL NICOTINATE] | log Kp | -5.35 cm/s |

The molecule listed as CCNc1nc(Cl)nc(NC(C)C)n1 has a reported log Kp of -5.56 cm/s

The molecule listed as O=C(O)Cc1ccccc1Nc1c(Cl)cccc1Cl has a reported log Kp of -5.3 cm/s

The molecule listed as Cc1ccc(C(C)C)c(O)c1 has a reported log Kp of -4.83 cm/s

The molecule listed as CN1C(C(=O)Nc2ccccn2)=C(O)c2ccccc2S1(=O)=O has a reported log Kp of -6.02 cm/s

The molecule listed as COC(=O)c1cccnc1 [METHYL NICOTINATE] has a reported log Kp of -6.04 cm/s

The molecule listed as Oc1ccc(Cl)cc1 has a reported log Kp of -5 cm/s

====

Each entry below carries its reported log Pe.
Settings: not told
Give just the numeric value; cm/s need not be written.

The following compounds have reported results that may help.
| COMPOUND | U | OBSERVED |
| --- | --- | --- |
| Oc1ccccc1 [PHENOL] | cm/s | -4.14 |
| CC(=O)[C@H]1CC[C@H]2[C@@H]3CCC4=CC(=O)CC[C@]4(C)[C@H]3CC[C@]12C [PROGESTERONE] | cm/s | -4.56 |
| CN1CCC[C@H]1c1cccnc1 [NICOTINE] | cm/s | -4.58 |
| Oc1ccc2ccccc2c1 [BETANAPHTHOL] | cm/s | -4.19 |

The compound listed as O=C(O)c1ccccc1O [SALICYLIC ACID] has a reported log Pe of -4.16

====

Conditions: not told
ENDPOINT_NAME: log Pe (cm/s)
Give just the numeric value; cm/s need not be written.

The following compounds have reported results that may help.
| ENTRY_SMILES | OBSERVED |
| --- | --- |
| CC(=O)[C@H]1CC[C@H]2[C@@H]3CCC4=CC(=O)CC[C@]4(C)[C@H]3CC[C@]12C | -4.31 |
| CN1CCC[C@H]1c1cccnc1 | -4.86 |

The compound listed as Oc1ccc2ccccc2c1 has a reported log Pe of -4.35

The compound listed as O=C(O)c1ccccc1O has a reported log Pe of -4.74

The compound listed as Oc1ccccc1 has a reported log Pe of -4.53

====

Each entry below carries its reported log Pe.
A bare number is not enough; add the unit after it.

The molecule listed as Nc1cc([N+](=O)[O-])ccc1O has a reported log Pe of -3.96 cm/s

The molecule listed as O=C(OCc1ccccc1)c1cccnc1 [BENZYL NICOTINATE] has a reported log Pe of -4.35 cm/s

The molecule listed as O=[N+]([O-])c1ccc(O)cc1 has a reported log Pe of -4.09 cm/s

The molecule listed as Cc1ccc(C(C)C)c(O)c1 has a reported log Pe of -4.23 cm/s

The molecule listed as Oc1cccc(O)c1 has a reported log Pe of -4.66 cm/s

The molecule listed as CCC1(c2ccccc2)C(=O)NC(=O)NC1=O has a reported log Pe of -4.16 cm/s

The molecule listed as Cc1cc(=O)n(-c2ccccc2)n1C [ANTIPYRINE] has a reported log Pe of -5.4 cm/s

====

Species on record: Homo sapiens
ENDPOINT_NAME: log Kp (cm/s)
Give just the numeric value; cm/s need not be written.

The following compounds have reported results that may help.
| COMPOUND | U | log Kp |
| --- | --- | --- |
| COc1ccc2c(c1)c(CC(=O)O)c(C)n2C(=O)c1ccc(Cl)cc1 [INDOMETHACIN] | cm/s | -5.39 |
| Cn1c(=O)c2c(ncn2C)n(C)c1=O [CAFFEINE] | cm/s | -7.56 |
| CN1CCC[C@H]1c1cccnc1 [NICOTINE] | cm/s | -5.26 |

The compound listed as Oc1ccc2ccccc2c1 [BETANAPHTHOL] has a reported log Kp of -5.11

The compound listed as Oc1ccccc1 [PHENOL] has a reported log Kp of -5.54

The compound listed as CCC1(c2ccccc2)C(=O)NC(=O)NC1=O [PHENOBARBITAL] has a reported log Kp of -6.9

====

Species on record: Homo sapiens
Settings: in vivo
ENDPOINT_NAME: log Kp (cm/s)
Give just the numeric value; cm/s need not be written.

| ENTRY_SMILES | ENDPOINT_NAME | OBSERVED |
| --- | --- | --- |
| CC(=O)[C@H]1CC[C@H]2[C@@H]3CCC4=CC(=O)CC[C@]4(C)[C@H]3CC[C@]12C | log Kp | -5.08 |
| CN[C@@H](C)[C@H](O)c1ccccc1 | log Kp | -5.75 |
| CCc1ccc(O)cc1 | log Kp | -5.01 |

Please find the next molecule below.
The molecule listed as O=[N+]([O-])c1ccc(O)cc1 has a reported log Kp of -5.81

====

Conditions: not told
Each entry below carries its reported log Kp.
Give just the numeric value; cm/s need not be written.

| ENTRY_SMILES | log Kp, cm/s |
| --- | --- |
| O=C(O)c1ccccc1O | -4.7 |
| CN1CCC[C@H]1c1cccnc1 | -4.29 |
| Oc1ccc2ccccc2c1 | -4.08 |

Please find the next compound below.
The compound listed as Oc1ccccc1 has a reported log Kp of -4.45

====

Assay: physchem
Each entry below carries its reported pKa.

The following compounds have reported results that may help.
| ENTRY_SMILES | ENDPOINT_NAME | OBSERVED |
| --- | --- | --- |
| CCNc1nc(Cl)nc(NC(C)C)n1 | pKa | < 2 |
| Nc1cc([N+](=O)[O-])ccc1O | pKa | 6.7 |
| Oc1ccc(Cl)cc1 | pKa | 9.26 |
| CN1CCC[C@H]1c1cccnc1 | pKa | 8.08 |

Please find the next compound below.
The compound listed as CCc1ccc(O)cc1 has a reported pKa of 10.2
